Taken from PubChem BioAssay AID2314.

Assay Procedure: Cycloheximide Counterscreen for Small Molecule Inhibitors of Shiga Toxin; note: read at 38.3 µM for the half of the compounds with a filed dose
Conditions: cell reporter, cycloheximide protein synthesis inhibition counterscreen
Hit rate of the full screen: of about 300,000 compounds, about 37,000 (12%) were called active. Cut-off read from the data, not from the text of the source: active = max response mostly above about 13% (no sharp cut-off); inactive = mostly below about 14%. What follows is part of a selection rich in actives, with near analogues and random picks from the rest.
Outcome codes: active, inactive

1) CCOc1cc(NC(=S)NCCCN(C)C)c(OCC)cc1NC(=O)C1CC1 | inactive
2) Cc1ccccc1OCCC(=O)OCC(=O)NC(C)c1ccccc1 (centres undefined) | inactive
3) CCOc1ccccc1NC(=O)Cn1nnc(C(=O)NCc2cccs2)c1N | inactive
4) CCc1nc2sc(C(=O)O)c(N)c2c2c1CCCC2 | inactive
5) CC(=O)c1ccc(NC(=O)CCNS(=O)(=O)c2cc(Br)cnc2N)cc1 | inactive
6) COc1ccc(CCNC(=O)c2ccco2)cc1 | active
7) Cc1ccc(C(=O)c2coc3ccc(O)c(CN(C)C)c23)cc1 | inactive
8) C=CCNc1ncnc2ccc(Br)cc12 | inactive
9) O=C1OC2(CCCCC2)CC2=C1C1O[C@](c3ccsc3)(Cc3ccccc31)O2 | inactive
10) Cc1cc(C)nc(N/N=C/c2ccc([N+](=O)[O-])o2)n1 | inactive
11) CCOc1cc(NC(=S)NCCCOC)c(OCC)cc1NC(=O)c1ccco1 | inactive
12) Cc1ccc2c(N)c(C(=O)c3ccccc3)sc2n1 | active
13) CN(C)Cc1c(O)ccc2occ(C(O)c3ccccc3)c12 (centres undefined) | active
14) COc1ccc(Nc2ncnc3sc(-c4ccccc4)cc23)c(OC)c1 | inactive
15) CCOc1ccc(C2C(C#N)=C(N)N(N(C)C)C3=C2C(=O)CCC3)cc1 (centres undefined) | inactive
16) CCCCOCCCNC(=O)c1ccccc1OCC | inactive
17) COC(=O)c1cc2c(N)c(C(=O)c3ccc(Cl)cc3)sc2nc1C(OC)OC | inactive
18) CCOc1ncccc1C(=O)NCCc1ccc(OC)cc1 | inactive
19) CCCc1ccc(OCCNC(=O)c2ccccc2Br)cc1 | active
20) Cc1cc2c(C)nc(N/N=C/c3ccccc3)nc2o1 | active
21) CN(C)c1ccnc2sc3c(=O)n(Cc4ccccc4)cnc3c12 | inactive
22) CCN(CC)C(=O)c1sc2nc(-c3ccccc3)ccc2c1N | active
23) NC(=O)c1sc2nc3c(c(-c4ccccc4)c2c1N)CCC3 | inactive
24) CC(=O)N1CCC(N(C(=O)Nc2ccc(Cl)cc2)C(C)C)CC1 | active

* * *

Assay Procedure: Cycloheximide Counterscreen for Small Molecule Inhibitors of Shiga Toxin; note: read at 38.3 µM for the half of the compounds with a filed dose
Conditions: cell reporter, cycloheximide protein synthesis inhibition counterscreen
Among all 300,000 compounds or so, about 37,000 (12%) were called active. Cut-off read from the data, not from the text of the source: active = max response mostly above about 13% (no sharp cut-off); inactive = mostly below about 14%. The sample holds actives, similar compounds and a random draw of the others, so the mix is not that of the screen.
Outcomes: active, inactive

1. CC(=N\NC(=O)c1cc(Br)ccc1O)/C(=N/O)C(=O)Nc1ccccc1 | active
2. CCN(CC(=O)NCCCN1CCOCC1)S(=O)(=O)c1cc(Cl)ccc1Cl | inactive
3. CC(C)/C=N/NC(=O)c1cc(Br)ccc1O | inactive
4. COC(=O)C1(C)NC(c2ccc(C)cc2)C2C(=O)N(c3ccc(F)cc3)C(=O)C21 (stereo unspecified) | inactive
5. O=[N+]([O-])c1ccc(NC(=S)N2CCN(c3ccccn3)CC2)cc1 | inactive
6. Cc1ccc(S(=O)(=O)NC2CCCCCC2)cc1C(N)=O | inactive

* * *

# key: entry, value: max response
Assay Procedure: Cycloheximide Counterscreen for Small Molecule Inhibitors of Shiga Toxin; note: read at 38.3 µM for the half of the compounds with a filed dose
Conditions: cell reporter, cycloheximide protein synthesis inhibition counterscreen; hits give high values
Out of some 300,000 compounds screened, about 37,000 (12%) were called active. Many of the other results were omitted from the sample, so actives are more common in it than they were.
Experimental Endpoint: max response (%)

1) CCOC(=O)c1cnc(Nc2nc3ccccc3o2)nc1CSC(=S)N1CCCCC1 | 10.5
2) COc1ccc2c3c(c(=O)oc2c1)C1O[C@](CCCCN2C(=O)c4ccccc4C2=O)(Cc2c1ccc1ccccc21)O3 | -1.56
3) Cc1cccc(Cn2cnc3c(N)c(C)c(C)cc32)c1 | -6.87
4) Cc1ccccc1/[N+]([O-])=C/c1ccncc1 | 9.27
5) Cc1ccccc1NC(=O)CSc1nc2ccc(Nc3nc(N4CCOCC4)nc(N4CCOCC4)n3)cc2s1 | -3.62

* * *

The following compounds are listed with their measured max response values.
Assay Procedure: Cycloheximide Counterscreen for Small Molecule Inhibitors of Shiga Toxin; note: read at 38.3 µM for the half of the compounds with a filed dose
Conditions: cell reporter, cycloheximide protein synthesis inhibition counterscreen; hits give high values
Among all 300,000 compounds or so, about 37,000 (12%) were called active. Only a selection was taken, and actives are over-represented in it overall.
Experimental Endpoint: max response (%)

1. CCn1c(=O)n(CC)c2cc(N3CCCC3)c(NC(=O)c3ccccc3Br)cc21 | -1.85
2. COc1ccc(-c2csc(Nc3ccc(O)cc3)n2)cc1 | 58.3
3. CCN(CC)CCN1C(=O)C(=O)/C(=C(/O)c2ccccc2)C1c1ccccc1F (stereo unspecified) | -1.86
4. CCc1ccccc1NC(=O)CN(C)S(=O)(=O)c1ccc2c(c1)c(=O)n(C)c(=O)n2C | -5.59
5. Oc1ccccc1CNc1ncc(Br)cc1Br | 19.8
6. COc1ccc(OC)c(Nc2nc(-c3ccc(O)c(O)c3)cs2)c1 | 0.815
7. CCCC(=O)Nc1ccc2c(c1)nc(CCNC(=O)c1ccco1)n2C | -0.909
8. CCc1cccc(C)c1NS(=O)(=O)c1cc(Br)cnc1N | -7.68
9. CC(C)c1ccc(S(=O)(=O)NC2CCCC2)cc1 | -3.21
10. CCCC(=O)Nc1ccc2c(c1)nc1n2CCSC1 | 24.1
11. CC[C@@H](C)[C@H](NC(=O)CCc1c(C)c2cc3c4c(oc3c(C)c2oc1=O)CCCC4)C(=O)O | 9.7
12. COc1ccccc1CNC(=O)C1CCN(S(=O)(=O)c2ccc3c(c2)OCCO3)CC1 | -5.22
13. Cc1cccc(NC(=O)c2sc3nc(N4CCOCC4)c4c(c3c2N)CCCC4)c1 | 14.3
14. CCS(=O)(=O)N1CCC(N2CCN(c3ccccc3)CC2)CC1 | -2.51
15. Oc1ccc(-c2csc(Nc3cccnc3)n2)cc1 | 33.7
16. Cc1ccc(CNC(=O)CCS(=O)(=O)c2ccc3c(c2)CC(C)N3C(=O)C2CC2)o1 (stereo unspecified) | 22.1
17. COc1ccccc1CNC(=O)C1CCN(S(=O)(=O)c2ccc3c(c2)CC(C)N3C(=O)C2CC2)CC1 (stereo unspecified) | 1.43
18. O=C(Nc1ccc(-c2csc(Nc3cccc(C(F)(F)F)c3)n2)cc1)c1cccc(C(F)(F)F)c1 | -4.63
19. Cc1ccc(NS(=O)(=O)c2cn(C)c(=O)n(C)c2=O)c(C)c1 | -0.304
20. Cc1ccc2c(c1)N(CC(=O)N(Cc1ccccn1)Cc1ccco1)C(=O)C(C(C)C)O2 (stereo unspecified) | 8.51
21. NS(=O)(=O)c1ccc(CCNC(=O)c2nc(CS(=O)(=O)c3ccc(Cl)cc3)no2)cc1 | -2.33

* * *

Below, each entry is listed alongside its reported max response.
Assay Procedure: Cycloheximide Counterscreen for Small Molecule Inhibitors of Shiga Toxin; note: read at 38.3 µM for the half of the compounds with a filed dose
Conditions: cell reporter, cycloheximide protein synthesis inhibition counterscreen; hits give high values
Out of some 300,000 compounds screened, about 37,000 (12%) were called active. The full list was thinned out, with actives kept by preference.
Experimental Endpoint: max response (%)

1. NNC(=O)c1cccc(COCC(F)(F)C(F)F)c1 | 9.81
2. CC[C@H](C)[C@H](NC(=O)[C@H](CCCNC(=N)N)NC(=O)[C@H](CCCNC(=N)N)NC(=O)[C@H](CC(C)C)NC(=O)[C@H](Cc1ccccc1)NC(=O)CNC(=O)CNC(=O)[C@@H](N)Cc1ccc(O)cc1)C(=O)N[C@@H](CCCNC(=N)N)C(=O)N1CCC[C@H]1C(=O)N[C@@H](CCCCN)C(=O)N[C@@H](CC(C)C)C(=O)N[C@@H](CCCCN)C(=O)N[C@@H](Cc1c[nH]c2ccccc12)C(=O)N[C@@H](CC(=O)O)C(=O)N[C@@H](CC(N)=O)C(=O)N[C@@H](CCC(N)=O)C(=O)O | -3.93
3. COc1cc(CO)ccc1OCC(=O)Nc1cccc2ccccc12 | -2.19
4. COCCNC(=O)/C(C#N)=C/c1nc(N(C)C)n(-c2ccc(F)cc2)c1Cl | 6.45
5. Cc1cccc(NS(=O)(=O)c2ccc(C)c(C(N)=O)c2)c1 | -1.67
6. CC(C)Cc1nnc(NC(=O)CN2C(=O)NC3(CCCCC3)C2=O)s1 | -1.99
7. Nc1cc(N)nc(SCc2ccc(Cl)cc2)n1 | 15.3

* * *

Assay Procedure: Cycloheximide Counterscreen for Small Molecule Inhibitors of Shiga Toxin; note: read at 38.3 µM for the half of the compounds with a filed dose
Conditions: cell reporter, cycloheximide protein synthesis inhibition counterscreen
Hit rate of the full screen: of about 300,000 compounds, about 37,000 (12%) were called active. Cut-off read from the data, not from the text of the source: active = max response mostly above about 13% (no sharp cut-off); inactive = mostly below about 14%. Many of the other results were omitted from the sample, so actives are more common in it than they were.
Outcome codes: 1 = active, 0 = inactive

1) Cc1cc(C)nc(Nc2n[nH]c(-c3ccccc3N)n2)n1 | 1
2) COc1cccc(NCCC(=O)c2cccc([N+](=O)[O-])c2)c1 | 1
3) Cc1cc(CNC(=O)c2cccc([N+](=O)[O-])c2)c2ccccc2n1 | 0
4) S=C(NCc1cccnc1)Nc1ccc(Cl)cc1Cl | 0
5) Cc1ccccc1-c1n[nH]c(=S)n1C | 0
6) Cc1cccc(C(=O)NNC(=O)c2cccc([N+](=O)[O-])c2)c1 | 0
7) Cc1cc(Cl)ccc1NC(=S)N1CCC(C(N)=O)(N2CCCCC2)CC1 | 0
8) COc1cc(OC)cc(C(=O)Nc2nnc(SCC(=O)NCC3CCCO3)s2)c1 (stereo unspecified) | 0
9) Cc1ccc2c(c1)C1CN(C)CCC1N2C(=S)Nc1ccc(Cl)cc1Cl (stereo unspecified) | 0
10) S=C(Nc1ccc(Br)cc1Cl)N1CCC2(CC1)OCCO2 | 1
11) CN1CCN(S(=O)(=O)c2ccc(NC(=S)NC(=O)C3CC3)cc2)CC1 | 0
